# TARGET_ENTITY: T1, human GPCR142 (human, UniProt Q8TDU9 1-374)
# T1 construct: whole, on cells
# PROTOCOL_DETAILS: radioligand competition, 50 pM 125I-R3/I5 tracer, COS-7 cells transiently expressing human GPCR142
Provide the recorded pIC50 for the entries that follow.
The read-out pIC50 is expressed as -log10 of concentration in moles per litre.

Inquiry: Annotate the binder R3(BΔ24-27) (peptide) chain 1: RAAPYGVRLCGREFIRAVIFTCG chain 2: DVLAGLSSSCCKWGCSKSEISSLC with its measured pIC50.
Reply text: 7.72

Inquiry: Specify pIC50 for R3(BΔ23-27)R (probably a misprint) chain 1: RAAPYGVRLCGREFIRAVIFTCR chain 2: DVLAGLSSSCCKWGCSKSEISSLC and stop.
Reply text: 8.41

Inquiry: Give recorded pIC50. R3(BΔ25-27) (peptide) chain 1: RAAPYGVRLCGREFIRAVIFTCGG chain 2: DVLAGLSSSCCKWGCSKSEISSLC
Reply text: 7.92

Inquiry: Complete the entry with pIC50 for R3(BΔ26-27) (peptide) chain 1: RAAPYGVRLCGREFIRAVIFTCGGS chain 2: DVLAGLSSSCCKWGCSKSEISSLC
Reply text: 8.02

Inquiry: Quick one: give measured pIC50 for R3(BΔ23-27)R/I5 (N-terminal pyro-Glu ("<E"), Chimeric two-chain peptide; also called R3(Δ23-27)R/I5; R3(ΔB23-27)R/I5) chain 1: RAAPYGVRLCGREFIRAVIFTCR chain 2: EDLQTLCCTDGCSMTDLSALC
Reply text: 8.64
